# Test system: P. falciparum NF54
# method: P. falciparum blood stage assay (SYBR Green)
# Format: cell-based, Plasmodium falciparum
# measurement_parameters: 1.25 uM, 72 h; untreated = 129
measured_quantity: P. falciparum blood-stage development (parasite DNA level fluorescence)
Numbers only.

Req: Could you tell me which P. falciparum blood-stage development (parasite DNA level fluorescence) is on file for Cc1nn(C)c(C)c1CCOc1cccnc1-c1ccnc(N2CCNCC2)c1 [Compound 12a] ?
Resp: 125.3

Req: Let us now turn to Cc1n[nH]c(C)c1CCOc1cc(F)ccc1-c1cccc(OCCN(C)C)c1 [Compound 26i]
Resp: 112.9

Req: Let us now turn to Cc1nn(C)c(C)c1CCOc1cc(F)ccc1-c1cccc(OCCN(C)C)c1 [Compound 26c]
Resp: 126.9

Req: Let us now turn to Cc1nn(C)c(C)c1CCOc1cccnc1-c1cccc(N2CCNCC2)c1 [Compound 12b]
Resp: 125.4

Provide P. falciparum blood-stage development (parasite DNA level fluorescence) for all items below, preserving their order.
1. Cc1nn(C)c(C)c1CCOc1cc(F)ccc1-c1cccc(N2CCNCC2)c1 [Compound 12f]
2. Cc1nn(C)c(C)c1CCOc1ccc2ccccc2c1-c1ccnc(N2CCNCC2)c1 [Compound 30a]

Resp:
1: 121.1; 2: 121.5

Req: Could you tell me which P. falciparum blood-stage development (parasite DNA level fluorescence) is on file for Fc1ccc(-c2ccnc(N3CCNCC3)c2)c(OCCc2cccnc2)c1 [Compound 12l] ?
Resp: 110.9
